- Test system: HeLa
- Protocol description: Antiproliferative activity against human HeLa cells after 2 days by MTT assay
- Type: functional, cell-based
- Experimental parameters: 48 h
pIC50: −log10 of the molar value.
Assign yes whenever pIC50 does not fall below 7; assign no whenever it does.

Answered examples (10):
Given COc1ccc(/C=C\c2cc(OC)c(OC)c(OC)c2)cc1NC(=O)Oc1cccc(F)c1 , state whether its pIC50 is at least 7. yes

Given COc1ccc(/C=C\c2cc(OC)c(OC)c(OC)c2)cc1NC(=O)Oc1ccccc1OC , state whether its pIC50 is at least 7. no

Given COc1ccc(/C=C\c2cc(OC)c(OC)c(OC)c2)cc1NC(=O)Oc1ccc(Cl)cc1 , state whether its pIC50 is at least 7. yes

Given COc1ccc(/C=C\c2cc(OC)c(OC)c(OC)c2)cc1N , state whether its pIC50 is at least 7. yes

Given COc1ccc(OC(=O)Nc2cc(/C=C\c3cc(OC)c(OC)c(OC)c3)ccc2OC)cc1 , state whether its pIC50 is at least 7. no

Given COc1ccc(/C=C\c2cc(OC)c(OC)c(OC)c2)cc1NC(=O)Oc1ccccc1 , state whether its pIC50 is at least 7. yes

Given COc1ccc(/C=C\c2cc(OC)c(OC)c(OC)c2)cc1NC(=O)Oc1cccc(C(F)(F)F)c1 , state whether its pIC50 is at least 7. yes

Given COc1ccc(/C=C\c2cc(OC)c(OC)c(OC)c2)cc1NC(=O)Oc1c(C)cccc1C , state whether its pIC50 is at least 7. no

Given COc1ccc(/C=C\c2cc(OC)c(OC)c(OC)c2)cc1NC(=O)Oc1ccc(C)cc1 , state whether its pIC50 is at least 7. no

Given COc1ccc(/C=C\c2cc(OC)c(OC)c(OC)c2)cc1NC(=O)Oc1cccc(C)c1 , state whether its pIC50 is at least 7. yes

Next:
Given COc1ccc(/C=C\c2cc(OC)c(OC)c(OC)c2)cc1NC(=O)Oc1ccc(C)c(C)c1 , state whether its pIC50 is at least 7. yes

Given COc1ccc(/C=C\c2cc(OC)c(OC)c(OC)c2)cc1NC(=O)Oc1cccc(Br)c1 , state whether its pIC50 is at least 7. yes

###

- System: MDA-MB-231
- Protocol description: Antiproliferative activity against human MDA-MB-231 cells after 3 days by coulter counting method
- Format: functional, cell-based
- Experimental parameters: MDA-MB-231, 72 h
pIC50: −log10 of the molar value.
Assign TRUE whenever pIC50 does not fall below 8; assign FALSE whenever it does.

Given COc1ccc(OC(=O)Nc2cc(/C=C\c3cc(OC)c(OC)c(OC)c3)ccc2OC)cc1 , state whether its pIC50 is at least 8. FALSE

Consider now this further molecule.
Given COc1ccc(/C=C\c2cc(OC)c(OC)c(OC)c2)cc1NC(=O)Oc1ccccc1OC , state whether its pIC50 is at least 8. FALSE

###

- Tested on: HT-29
- Protocol description: Antiproliferative activity against human HT-29 cells after 2 days by MTT assay
- Assay type: functional, cell-based
- Experimental parameters: HT-29, 48 h
Param label: returns 1 (yes) when IC50 < 300 nM, returns 0 (no) otherwise, including exact equality.

Please determine if COc1ccc(/C=C\c2cc(OC)c(OC)c(OC)c2)cc1NC(=O)Oc1ccccc1Br is below 300 nM in terms of IC50. 1 (yes)

Please determine if COc1ccc(/C=C\c2cc(OC)c(OC)c(OC)c2)cc1NC(=O)Oc1ccccc1OC is below 300 nM in terms of IC50. 1 (yes)

Please determine if COc1ccc(/C=C\c2cc(OC)c(OC)c(OC)c2)cc1NC(=O)Oc1cccc(C(F)(F)F)c1 is below 300 nM in terms of IC50. 1 (yes)

Please determine if COc1ccc(OC(=O)Nc2cc(/C=C\c3cc(OC)c(OC)c(OC)c3)ccc2OC)cc1 is below 300 nM in terms of IC50. 0 (no)

Please determine if COc1ccc(/C=C\c2cc(OC)c(OC)c(OC)c2)cc1NC(=O)Oc1cccc(C)c1C is below 300 nM in terms of IC50. 1 (yes)

Please determine if COc1ccc(/C=C\c2cc(OC)c(OC)c(OC)c2)cc1NC(=O)Oc1ccc(C(F)(F)F)cc1 is below 300 nM in terms of IC50. 1 (yes)

Next:
Please determine if COc1ccc(/C=C\c2cc(OC)c(OC)c(OC)c2)cc1NC(=O)Oc1cc(C)cc(C)c1 is below 300 nM in terms of IC50. 1 (yes)

Please determine if COc1ccc(/C=C\c2cc(OC)c(OC)c(OC)c2)cc1NC(=O)Oc1c(C)cccc1C is below 300 nM in terms of IC50. 0 (no)

###

- Test system: HeLa
- Protocol description: Antiproliferative activity against human HeLa cells after 2 days by MTT assay
- Format: functional, cell-based
- Experimental parameters: 48 h
Entries and their pIC50 values follow.
Please treat pIC50 as minus the base-10 logarithm of the molar concentration.

Some solved entries appear below for comparison.
// recorded pIC50 for COc1ccc(/C=C\c2cc(OC)c(OC)c(OC)c2)cc1NC(=O)Oc1cccc(Cl)c1 : 8.32

// recorded pIC50 for COc1ccc(/C=C\c2cc(OC)c(OC)c(OC)c2)cc1NC(=O)Oc1cccc(C)c1C : 7.40

// recorded pIC50 for COc1ccc(/C=C\c2cc(OC)c(OC)c(OC)c2)cc1NC(=O)Oc1ccc(Cl)c(C)c1 : 8.48

// recorded pIC50 for COc1ccc(/C=C\c2cc(OC)c(OC)c(OC)c2)cc1NC(=O)Oc1ccc(F)cc1 : 7.22

Next:
// recorded pIC50 for COc1ccc(/C=C\c2cc(OC)c(OC)c(OC)c2)cc1NC(=O)Oc1ccc(Br)cc1 : 8.92

###

- System: MDA-MB-231
- Protocol description: Antiproliferative activity against human MDA-MB-231 cells after 3 days by coulter counting method
- Type: functional, cell-based
- Experimental parameters: MDA-MB-231, 72 h
Observable: pIC50
Please treat pIC50 as minus the base-10 logarithm of the molar concentration.

// recorded pIC50 for COc1ccc(/C=C\c2cc(OC)c(OC)c(OC)c2)cc1NC(=O)Oc1ccccc1 : 7.93

// recorded pIC50 for COc1ccc(/C=C\c2cc(OC)c(OC)c(OC)c2)cc1NC(=O)Oc1ccc(C)c(C)c1 : 7.39

// recorded pIC50 for COc1ccc(/C=C\c2cc(OC)c(OC)c(OC)c2)cc1NC(=O)Oc1cccc(C)c1 : 7.87

// recorded pIC50 for COc1ccc(/C=C\c2cc(OC)c(OC)c(OC)c2)cc1NC(=O)Oc1ccc(C)cc1 : 7.85

// recorded pIC50 for COc1ccc(/C=C\c2cc(OC)c(OC)c(OC)c2)cc1NC(=O)Oc1ccc(C(F)(F)F)cc1 : 7.67

// recorded pIC50 for COc1ccc(/C=C\c2cc(OC)c(OC)c(OC)c2)cc1NC(=O)Oc1ccccc1Cl : 7.86

// recorded pIC50 for COc1ccc(/C=C\c2cc(OC)c(OC)c(OC)c2)cc1NC(=O)Oc1ccc(C)c(Cl)c1 : 7.86

Now look at this one.
// recorded pIC50 for COc1ccc(/C=C\c2cc(OC)c(OC)c(OC)c2)cc1NC(=O)Oc1ccccc1F : 7.15

###

- Tested on: HeLa
- Protocol description: Antiproliferative activity against human HeLa cells after 2 days by MTT assay
- Type: functional, cell-based
- Experimental parameters: 48 h
Observable: IC50 (nM)
Kindly answer with a numeric value in nM, unit omitted.

Some solved entries appear below for comparison.
// recorded IC50 for COc1ccc(/C=C\c2cc(OC)c(OC)c(OC)c2)cc1NC(=O)Oc1ccccc1C(F)(F)F : 15

// recorded IC50 for COc1ccc(/C=C\c2cc(OC)c(OC)c(OC)c2)cc1NC(=O)Oc1cccc(Cl)c1C : 23

// recorded IC50 for COc1ccc(/C=C\c2cc(OC)c(OC)c(OC)c2)cc1NC(=O)Oc1ccc(C)c(Cl)c1 : 3.7

// recorded IC50 for COc1cccc(OC(=O)Nc2cc(/C=C\c3cc(OC)c(OC)c(OC)c3)ccc2OC)c1 : 3.4

Next:
// recorded IC50 for COc1ccc(/C=C\c2cc(OC)c(OC)c(OC)c2)cc1NC(=O)Oc1ccccc1Cl : 5

###

- Tested on: HT-29
- Protocol description: Antiproliferative activity against human HT-29 cells after 2 days by MTT assay
- Assay type: functional, cell-based
- Experimental parameters: HT-29, 48 h
Param label: returns Y when IC50 < 30 nM, returns N otherwise, including exact equality.

Answered examples (8):
Please determine if COc1cccc(OC(=O)Nc2cc(/C=C\c3cc(OC)c(OC)c(OC)c3)ccc2OC)c1 is below 30 nM in terms of IC50. Y

Please determine if COc1ccc(/C=C\c2cc(OC)c(OC)c(OC)c2)cc1NC(=O)Oc1ccc(F)cc1 is below 30 nM in terms of IC50. N

Please determine if COc1ccc(/C=C\c2cc(OC)c(OC)c(OC)c2)cc1N is below 30 nM in terms of IC50. Y

Please determine if COc1ccc(/C=C\c2cc(OC)c(OC)c(OC)c2)cc1NC(=O)Oc1ccccc1C(F)(F)F is below 30 nM in terms of IC50. Y

Please determine if COc1ccc(/C=C\c2cc(OC)c(OC)c(OC)c2)cc1NC(=O)Oc1ccc(C)cc1 is below 30 nM in terms of IC50. N

Please determine if COc1ccc(/C=C\c2cc(OC)c(OC)c(OC)c2)cc1NC(=O)Oc1ccc(C)c(C)c1 is below 30 nM in terms of IC50. N

Please determine if COc1ccc(/C=C\c2cc(OC)c(OC)c(OC)c2)cc1NC(=O)Oc1ccc(Br)cc1 is below 30 nM in terms of IC50. Y

Please determine if COc1ccc(/C=C\c2cc(OC)c(OC)c(OC)c2)cc1NC(=O)Oc1ccccc1 is below 30 nM in terms of IC50. Y

Next:
Please determine if COc1ccc(/C=C\c2cc(OC)c(OC)c(OC)c2)cc1NC(=O)Oc1cccc(F)c1 is below 30 nM in terms of IC50. Y

Please determine if COc1ccc(/C=C\c2cc(OC)c(OC)c(OC)c2)cc1NC(=O)Oc1ccccc1F is below 30 nM in terms of IC50. N
